# SYSTEM_NAME: HIV-1 RT-associated RNase H (Human immunodeficiency virus type 1 group M subtype B, UniProt P03366)
# ASSAY_DETAILS: HIV-1 RT-associated RNase H inhibition assay
# Type: biochemical
# Parameters: 50 nM of HIV-1 RT
ENDPOINT_LABEL: HIV-1 RNase H inhibitory activity (in words)

[
  {
    "COMPOUND": "O=C1C(O)=C(C(NCc2ccccc2)c2cc(Br)cc(Br)c2O)C(=O)c2ccccc21 (stereo not shown)",
    "OBSERVED_RESULT": "moderate activities"
  },
  {
    "COMPOUND": "O=C1C(O)=C(C(NCc2ccccc2)c2cc(Cl)cc(Cl)c2O)C(=O)c2ccccc21 (stereo not shown)",
    "OBSERVED_RESULT": "moderate activities"
  }
]

Hello, the source for this data is paper PMC11820915, in case you need it.
